B1: CAMK2B (parent)
chain: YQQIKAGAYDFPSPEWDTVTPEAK

Variants of: B1
assaySummary: protein stability index of a GFP-peptide fusion (GPS, HEK-293T) (PSI 1-6); higher = more stable;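 note: lentivirally expressed fusions sorted by FACS into six bins by GFP to DsRed ratio, PSI derived from sequencing read proportions per bin multiplied by bin number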
setupConditions: c terminus: a fixed tail appended
Entries and their protein stability index
// keep it numeric: no unit symbol after the value

Worked cases, answers included:
[[record]]
variantname = "Q2W"
val = 3.06

[[record]]
variantname = "D17R"
val = 2.57


Would you mind telling me what protein stability index value was observed for `A8E` ?
3.95

Here is the next variant: `E15G`
2.72

Here is the next variant: `A23S`
3.86

Here is the next variant: `K5S`
3.64

Here is the next variant: `A8W`
2.26

Here is the next variant: `W16E`
4.46

Here is the next variant: `A8T`
3.44
